System: HeLa Kyoto
Assay: solubility in G1/S (NP-40 vs SDS abundance) (log2 ratio); higher = more soluble
Details: cell cycle stage: G1/S
value_kind: solubility in G1/S (log2)
In your answer, state the number alone without any accompanying words.

Per the records, this substance ( MASLLAKDAYLQSLAKKICSHSAPEQQARTRAGKTQGSETAGPPKKKRKKTQKKFRKREEKAAEHKAKSLGEKSPAASGARRPEAAKEEAAWASSSAGNPADGLATEPESVFALDVLRQRLHEKIQEARGQGSAKELSPAALEKRRRRKQERDRKKRKRKELRAKEKARKAEEATEAQEVVEATPEGACTEPREPPGLIFNKVEVSEDEPASKAQRRKEKRQRVKGNLTPLTGRNYRQLLERLQARQSRLDELRGQDEGKAQELEAKMKWTNLLYKAEGVKIRDDERLLQEALKRKEKRRAQRQRRWEKRTAGVVEKMQQRQDRRRQNLRRKKAARAERRLLRARKKGRILPQDLERAGLV [SURF6] ) has solubility in G1/S (log2) equal to -1.46

Per the records, this substance ( MADPWQECMDYAVTLARQAGEVVCEAIKNEMNVMLKSSPVDLVTATDQKVEKMLISSIKEKYPSHSFIGEESVAAGEKSILTDNPTWIIDPIDGTTNFVHRFPFVAVSIGFAVNKKIEFGVVYSCVEGKMYTARKGKGAFCNGQKLQVSQQEDITKSLLVTELGSSRTPETVRMVLSNMEKLFCIPVHGIRSVGTAAVNMCLVATGGADAYYEMGIHCWDVAGAGIIVTEAGGVLMDVTGGPFDLMSRRVIAANNRILAERIAKEIQVIPLQRDDED [IMPA1] ) has solubility in G1/S (log2) equal to 0.0966

Per the records, this substance ( MQTPVNIPVPVLRLPRGPDGFSRGFAPDGRRAPLRPEVPEIQECPIAQESLESQEQRARAALRERYLRSLLAMVGHQVSFTLHEGVRVAAHFGATDLDVANFYVSQLQTPIGVQAEALLRCSDIISYTFKP [GEMIN7] ) has solubility in G1/S (log2) equal to -0.401

Per the records, this substance ( POMGNT1 ) has solubility in G1/S (log2) equal to -0.257

----------
Test system: HeLa Kyoto
Experiment: melting temperature (median over replicates), in situ; higher = more thermally stable
Conditions: cell cycle stage: mitosis
value_kind: melting temperature
Please state the number and follow it with the unit.

Per the records, this sequence ( MLGIWTLLPLVLTSVARLSSKSVNAQVTDINSKGLELRKTVTTVETQNLEGLHHDGQFCHKPCPPGERKARDCTVNGDEPDCVPCQEGKEYTDKAHFSSKCRRCRLCDEGHGLEVEINCTRTQNTKCRCKPNFFCNSTVCEHCDPCTKCEHGIIKECTLTSNTKCKEEGSRSNLGWLCLLLLPIPLIVWVKRKEVQKTCRKHRKENQGSHESPTLNPETVAINLSDVDLSKYITTIAGVMTLSQVKGFVRKNGVNEAKIDEIKNDNVQDTAEQKVQLLRNWHQLHGKKEAYDTLIKDLKKANLCTLAEKIQTIILKDITSDSENSNFRNEIQSLV [FAS] ) has melting temperature equal to 54.4 °C

----------
System: HeLa Kyoto
Test: melting temperature (median over replicates), in situ; higher = more thermally stable
Settings: cell cycle stage: G1/S
value_kind: melting temperature (°C)
Write the number in °C without appending the unit.

Per the records, this sequence ( MAVNVYSTSVTSDNLSRHDMLAWINESLQLNLTKIEQLCSGAAYCQFMDMLFPGSIALKKVKFQAKLEHEYIQNFKILQAGFKRMGVDKIIPVDKLVKGKFQDNFEFVQWFKKFFDANYDGKDYDPVAARQGQETAVAPSLVAPALNKPKKPLTSSSAAPQRPISTQRTAAAPKAGPGVVRKNPGVGNGDDEAAELMQQVNVLKLTVEDLEKERDFYFGKLRNIELICQENEGENDPVLQRIVDILYATDEGFVIPDEGGPQEEQEEY [MAPRE1] ) has melting temperature equal to 50.8

Per the records, this sequence ( MSSTQFNKGPSYGLSAEVKNRLLSKYDPQKEAELRTWIEGLTGLSIGPDFQKGLKDGTILCTLMNKLQPGSVPKINRSMQNWHQLENLSNFIKAMVSYGMNPVDLFEANDLFESGNMTQVQVSLLALAGKAKTKGLQSGVDIGVKYSEKQERNFDDATMKAGQCVIGLQMGTNKCASQSGMTAYGTRRHLYDPKNHILPPMDHSTISLQMGTNKCASQVGMTAPGTRRHIYDTKLGTDKCDNSSMSLQMGYTQGANQSGQVFGLGRQIYDPKYCPQGTVADGAPSGTGDCPDPGEVPEYPPYYQEEAGY [CNN2] ) has melting temperature equal to 48.8

Per the records, this sequence ( MGREFGNLTRMRHVISYSLSPFEQRAYPHVFTKGIPNVLRRIRESFFRVVPQFVVFYLIYTWGTEEFERSKRKNPAAYENDK [UQCRQ] ) has melting temperature equal to 53.1

Per the records, this sequence ( MAEKVLVTGGAGYIGSHTVLELLEAGYLPVVIDNFHNAFRGGGSLPESLRRVQELTGRSVEFEEMDILDQGALQRLFKKYSFMAVIHFAGLKAVGESVQKPLDYYRVNLTGTIQLLEIMKAHGVKNLVFSSSATVYGNPQYLPLDEAHPTGGCTNPYGKSKFFIEEMIRDLCQADKTWNAVLLRYFNPTGAHASGCIGEDPQGIPNNLMPYVSQVAIGRREALNVFGNDYDTEDGTGVRDYIHVVDLAKGHIAALRKLKEQCGCRIYNLGTGTGYSVLQMVQAMEKASGKKIPYKVVARREGDVAACYANPSLAQEELGWTAALGLDRMCEDLWRWQKQNPSGFGTQA [GALE] ) has melting temperature equal to 53.3

Per the records, this sequence ( MWLWEDQGGLLGPFSFLLLVLLLVTRSPVNACLLTGSLFVLLRVFSFEPVPSCRALQVLKPRDRISAIAHRGGSHDAPENTLAAIRQAAKNGATGVELDIEFTSDGIPVLMHDNTVDRTTDGTGRLCDLTFEQIRKLNPAANHRLRNDFPDEKIPTLREAVAECLNHNLTIFFDVKGHAHKATEALKKMYMEFPQLYNNSVVCSFLPEVIYKMRQTDRDVITALTHRPWSLSHTGDGKPRYDTFWKHFIFVMMDILLDWSMHNILWYLCGISAFLMQKDFVSPAYLKKWSAKGIQVVGWTVNTFDEKSYYESHLGSSYITDSMVEDCEPHF [GDE1] ) has melting temperature equal to 51.5

Per the records, this sequence ( MAETEERSLDNFFAKRDKKKKKERSNRAASAAGAAGSAGGSSGAAGAAGGGAGAGTRPGDGGTASAGAAGPGAATKAVTKDEDEWKELEQKEVDYSGLRVQAMQISSEKEEDDNEKRQDPGDNWEEGGGGGGGMEKSSGPWNKTAPVQAPPAPVIVTETPEPAMTSGVYRPPGARLTTTRKTPQGPPEIYSDTQFPSLQSTAKHVESRKDKEMEKSFEVVRHKNRGRDEVSKNQALKLQLDNQYAVLENQKSSHSQYN [CDV3] ) has melting temperature equal to 57.2

Per the records, this sequence ( MAYHSGYGAHGSKHRARAAPDPPPLFDDTSGGYSSQPGGYPATGADVAFSVNHLLGDPMANVAMAYGSSIASHGKDMVHKELHRFVSVSKLKYFFAVDTAYVAKKLGLLVFPYTHQNWEVQYSRDAPLPPRQDLNAPDLYIPTMAFITYVLLAGMALGIQKRFSPEVLGLCASTALVWVVMEVLALLLGLYLATVRSDLSTFHLLAYSGYKYVGMILSVLTGLLFGSDGYYVALAWTSSALMYFIVRSLRTAALGPDSMGGPVPRQRLQLYLTLGAAAFQPLIIYWLTFHLVR [YIF1A] ) has melting temperature equal to 57.2

Per the records, this sequence ( MADGDSGSERGGGGGPCGFQPASRGGGEQETQELASKRLDIQNKRFYLDVKQNAKGRFLKIAEVGAGGSKSRLTLSMAVAAEFRDSLGDFIEHYAQLGPSSPEQLAAGAEEGGGPRRALKSEFLVRENRKYYLDLKENQRGRFLRIRQTVNRGGGGFGAGPGPGGLQSGQTIALPAQGLIEFRDALAKLIDDYGGEDDELAGGPGGGAGGPGGGLYGELPEGTSITVDSKRFFFDVGCNKYGVFLRVSEVKPSYRNAITVPFKAWGKFGGAFCRYADEMKEIQERQRDKLYERRGGGSGGGEESEGEEVDED [PURB] ) has melting temperature equal to 54.2

Per the records, this sequence ( MAAAAMAAAAGGGAGAARSLSRFRGCLAGALLGDCVGSFYEAHDTVDLTSVLRHVQSLEPDPGTPGSERTEALYYTDDTAMARALVQSLLAKEAFDEVDMAHRFAQEYKKDPDRGYGAGVVTVFKKLLNPKCRDVFEPARAQFNGKGSYGNGGAMRVAGISLAYSSVQDVQKFARLSAQLTHASSLGYNGAILQALAVHLALQGESSSEHFLKQLLGHMEDLEGDAQSVLDARELGMEERPYSSRLKKIGELLDQASVTREEVVSELGNGIAAFESVPTAIYCFLRCMEPDPEIPSAFNSLQRTLIYSISLGGDTDTIATMAGAIAGAYYGMDQVPESWQQSCEGYEETDILAQSLHRVFQKS [ADPRHL2] ) has melting temperature equal to 53.3

Per the records, this sequence ( MAARRGALIVLEGVDRAGKSTQSRKLVEALCAAGHRAELLRFPERSTEIGKLLSSYLQKKSDVEDHSVHLLFSANRWEQVPLIKEKLSQGVTLVVDRYAFSGVAFTGAKENFSLDWCKQPDVGLPKPDLVLFLQLQLADAAKRGAFGHERYENGAFQERALRCFHQLMKDTTLNWKMVDASKSIEAVHEDIRVLSEDAIRTATEKPLGELWK [DTYMK] ) has melting temperature equal to 56.9
